- assay_target: T1, PHF-tau (paired helical filament tau isolated from Alzheimer's disease brain) (human, UniProt P10636-8 2-441, limits assumed, hyper-phosphorylated, aggregated; sites not listed for the preparation)
- T1 construct: also called enriched PHF-tau; ePHF-tau
- T1 sequence (P10636 other isoform, or with tags, fused parts or gaps limits assumed): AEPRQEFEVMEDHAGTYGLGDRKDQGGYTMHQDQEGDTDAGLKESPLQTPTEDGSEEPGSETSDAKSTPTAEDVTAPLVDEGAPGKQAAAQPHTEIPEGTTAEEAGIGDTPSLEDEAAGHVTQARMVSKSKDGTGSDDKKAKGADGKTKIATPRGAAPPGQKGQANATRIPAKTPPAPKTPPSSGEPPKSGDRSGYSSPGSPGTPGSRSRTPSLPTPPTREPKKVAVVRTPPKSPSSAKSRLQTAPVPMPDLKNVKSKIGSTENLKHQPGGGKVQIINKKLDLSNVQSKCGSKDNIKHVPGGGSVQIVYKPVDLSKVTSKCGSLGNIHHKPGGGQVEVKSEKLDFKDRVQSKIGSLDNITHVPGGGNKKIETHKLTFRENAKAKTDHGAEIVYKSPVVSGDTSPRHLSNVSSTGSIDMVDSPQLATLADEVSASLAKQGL
- assay_summary: SPR ProteOn, PHF-tau capture-coupled via HT7, bivalent model
assay_metric: pKd
To interpret pKd, take it as minus log10 of a concentration measured in moles per litre.

Some binders with recorded pKd:
binder: B333 (antibody, human IgG1, kappa, V domains shown, also called PT1B333) VH: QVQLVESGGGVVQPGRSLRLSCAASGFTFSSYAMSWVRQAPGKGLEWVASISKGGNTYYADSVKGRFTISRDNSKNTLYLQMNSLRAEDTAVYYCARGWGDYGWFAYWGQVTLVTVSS VL: DIQMTQSPSSLSASVGDRVTITCKASQDINRWLNWFQQKPGKAPKSLIYRANRLLDGVPSRFSGSGSGTDFTLTISSLQPEDFATYYCLQYDEFPLTFGQGTKLEIKR
pKd: 11.60
--
binder: B711 (antibody, human IgG1, kappa, V domains shown, also called PT1B711) VH: QVQLVESGGGVVQPGRSLRLSCAASGFTFTSYAMSWVRQAPGKGLEWVASITKGGNTYYADSVKGRFTISRDNSKNTLYLQMNSLRAEDTAVYYCARGWGIYGWFAYWGQVTLVTVSS VL: DIQMTQSPSSLSASVGDRVTITCKASQDINRWLNWFQQKPGKAPKSLIYRANRLLDGVPSRFSGSGSGTDFTLTISSLQPEDFATYYCLQYDEFPLTFGQGTKLEIKR
pKd: 11.74
--
binder: B296 (antibody, human IgG1, kappa, V domains shown, Humanized PT3, human IgG1/kappa; also called VH92/VL77; HFA-PT3) VH: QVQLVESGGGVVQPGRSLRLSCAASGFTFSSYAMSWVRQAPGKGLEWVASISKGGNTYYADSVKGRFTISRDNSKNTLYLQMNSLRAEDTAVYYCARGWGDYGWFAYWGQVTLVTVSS VL: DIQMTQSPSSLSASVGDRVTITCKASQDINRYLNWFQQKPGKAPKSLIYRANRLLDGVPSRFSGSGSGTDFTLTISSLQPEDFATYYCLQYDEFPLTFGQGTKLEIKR
pKd: 11.21

Determine its reported pKd: B809 (antibody, human IgG1, kappa, V domains shown, also called PT1B809) VH: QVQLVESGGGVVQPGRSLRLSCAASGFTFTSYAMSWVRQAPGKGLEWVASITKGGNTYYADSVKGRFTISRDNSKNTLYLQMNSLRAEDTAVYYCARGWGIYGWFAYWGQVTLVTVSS VL: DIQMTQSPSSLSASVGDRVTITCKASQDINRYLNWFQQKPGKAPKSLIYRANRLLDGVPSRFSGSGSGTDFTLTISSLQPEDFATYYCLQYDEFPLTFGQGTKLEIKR
11.70
